System: Candida albicans ATCC MYA-574
Assay: MIC assay, Candida standard strain (CLSI M27-A3)
Format: cell-based
Conditions: 24 h, 35° C.
Numbered stars: 1 amine (or outer) side, 2 acyl side, 3 side chain; on linkers, the order of the positions; unused ones are H or OH. Bridge positions count the residues as written; N and C are the ends. Square brackets hold non-standard residues; d marks the D form. Peptide text beside a SMILES is read from it. * marks the point of attachment. Orn(4R-OH,5R-OCH2CH2NMe3+) = C[N+](C)(C)CCO[C@@H](N[*:3])[C@H](O)C[C@H](N[*:1])C(=O)[*:2]; hTyr(3S-OH,4S-OH) = N[C@H](C(=O)O)[C@H](O)[C@@H](O)c1ccc(O)cc1; X2 = CCCCCOc1ccc(C#Cc2ccc3cc(C(=O)*)ccc3c2)c(F)c1F; X4 = CCCCCOc1c(F)cc(C#Cc2ccc3cc(C(=O)*)ccc3c2)cc1F; Pro(3S-OH,4S-Me) = C[C@H]1CN[C@H](C(=O)O)[C@H]1O; Hyp = O=C(O)[C@@H]1C[C@@H](O)CN1
measurement-label: MIC

CCCCCOc1c(F)cc(C#Cc2ccc3cc(C(=O)N[C@H]4C[C@@H](O)[C@@H](OCC[N+](C)(C)C)NC(=O)[C@@H]5[C@@H](O)[C@@H](C)CN5C(=O)[C@H]([C@@H](C)O)NC(=O)[C@H]([C@H](O)[C@@H](O)c5ccc(O)cc5)NC(=O)[C@@H]5C[C@@H](O)CN5C(=O)[C@H]([C@@H](C)O)NC4=O)ccc3c2)cc1F [Example 14] (X4-[Orn(4R-OH,5R-OCH2CH2NMe3+)]T[Hyp][hTyr(3S-OH,4S-OH)]T[Pro(3S-OH,4S-Me)]; lactam 1-C); ≤ 0.015 µg/mL

In the following, a different compound is considered.
In: Find the measured MIC: item CCCCCOc1ccc(C#Cc2ccc3cc(C(=O)N[C@H]4C[C@@H](O)[C@@H](OCC[N+](C)(C)C)NC(=O)[C@@H]5[C@@H](O)[C@@H](C)CN5C(=O)[C@H]([C@@H](C)O)NC(=O)[C@H]([C@H](O)[C@@H](O)c5ccc(O)cc5)NC(=O)[C@@H]5C[C@@H](O)CN5C(=O)[C@H]([C@@H](C)O)NC4=O)ccc3c2)c(F)c1F [Example 8] (X2-[Orn(4R-OH,5R-OCH2CH2NMe3+)]T[Hyp][hTyr(3S-OH,4S-OH)]T[Pro(3S-OH,4S-Me)]; lactam 1-C) , target or system Candida albicans ATCC MYA-574.
Out: ≤ 0.015 µg/mL

---

Assay: Study on pharmacokinetic properties in rats after intravenous injection
Conditions: SD, rat, in vivo, 5 mg/kg
Numbered stars: 1 amine (or outer) side, 2 acyl side, 3 side chain; on linkers, the order of the positions; unused ones are H or OH. Bridge positions count the residues as written; N and C are the ends. Square brackets hold non-standard residues; d marks the D form. Peptide text beside a SMILES is read from it. * marks the point of attachment. Orn(4R-OH,5R-OCH2CH2NMe3+) = C[N+](C)(C)CCO[C@@H](N[*:3])[C@H](O)C[C@H](N[*:1])C(=O)[*:2]; pTerphenylCO(4''-OnC5H11) = CCCCCOc1ccc(-c2ccc(-c3ccc(C(=O)*)cc3)cc2)cc1; hTyr(3S-OH,4S-OH) = N[C@H](C(=O)O)[C@H](O)[C@@H](O)c1ccc(O)cc1; Pro(3S-OH,4S-Me) = C[C@H]1CN[C@H](C(=O)O)[C@H]1O; Hyp = O=C(O)[C@@H]1C[C@@H](O)CN1
measurement-label: clearance (mL/min/kg)
Numeric answer only, unit mL/min/kg assumed.

In: Consider the compound shown here: CCCCCOc1ccc(-c2ccc(-c3ccc(C(=O)N[C@H]4C[C@@H](O)[C@@H](OCC[N+](C)(C)C)NC(=O)[C@@H]5[C@@H](O)[C@@H](C)CN5C(=O)[C@H]([C@@H](C)O)NC(=O)[C@H]([C@H](O)[C@@H](O)c5ccc(O)cc5)NC(=O)[C@@H]5C[C@@H](O)CN5C(=O)[C@H]([C@@H](C)O)NC4=O)cc3)cc2)cc1 [Rezafungin, rezafungin, reference compound] ({pTerphenylCO(4''-OnC5H11)}-[Orn(4R-OH,5R-OCH2CH2NMe3+)]T[Hyp][hTyr(3S-OH,4S-OH)]T[Pro(3S-OH,4S-Me)]; lactam 1-C) What is its recorded clearance?
Out: 0.8

From: patent US20250011365A1
